# pIC50 values compiled below
target: baculovirus-expressed ALK (Homo sapiens); construct: host or cells: baculovirus expression system; assay: ALK Kinase Assay (ELISA-type, time-resolved fluorescence); format: biochemical; conditions: ALK kinase inhibition, 1 μM ATP; read-out: ALK Activity
Sequence (Q9UM73 19-1620): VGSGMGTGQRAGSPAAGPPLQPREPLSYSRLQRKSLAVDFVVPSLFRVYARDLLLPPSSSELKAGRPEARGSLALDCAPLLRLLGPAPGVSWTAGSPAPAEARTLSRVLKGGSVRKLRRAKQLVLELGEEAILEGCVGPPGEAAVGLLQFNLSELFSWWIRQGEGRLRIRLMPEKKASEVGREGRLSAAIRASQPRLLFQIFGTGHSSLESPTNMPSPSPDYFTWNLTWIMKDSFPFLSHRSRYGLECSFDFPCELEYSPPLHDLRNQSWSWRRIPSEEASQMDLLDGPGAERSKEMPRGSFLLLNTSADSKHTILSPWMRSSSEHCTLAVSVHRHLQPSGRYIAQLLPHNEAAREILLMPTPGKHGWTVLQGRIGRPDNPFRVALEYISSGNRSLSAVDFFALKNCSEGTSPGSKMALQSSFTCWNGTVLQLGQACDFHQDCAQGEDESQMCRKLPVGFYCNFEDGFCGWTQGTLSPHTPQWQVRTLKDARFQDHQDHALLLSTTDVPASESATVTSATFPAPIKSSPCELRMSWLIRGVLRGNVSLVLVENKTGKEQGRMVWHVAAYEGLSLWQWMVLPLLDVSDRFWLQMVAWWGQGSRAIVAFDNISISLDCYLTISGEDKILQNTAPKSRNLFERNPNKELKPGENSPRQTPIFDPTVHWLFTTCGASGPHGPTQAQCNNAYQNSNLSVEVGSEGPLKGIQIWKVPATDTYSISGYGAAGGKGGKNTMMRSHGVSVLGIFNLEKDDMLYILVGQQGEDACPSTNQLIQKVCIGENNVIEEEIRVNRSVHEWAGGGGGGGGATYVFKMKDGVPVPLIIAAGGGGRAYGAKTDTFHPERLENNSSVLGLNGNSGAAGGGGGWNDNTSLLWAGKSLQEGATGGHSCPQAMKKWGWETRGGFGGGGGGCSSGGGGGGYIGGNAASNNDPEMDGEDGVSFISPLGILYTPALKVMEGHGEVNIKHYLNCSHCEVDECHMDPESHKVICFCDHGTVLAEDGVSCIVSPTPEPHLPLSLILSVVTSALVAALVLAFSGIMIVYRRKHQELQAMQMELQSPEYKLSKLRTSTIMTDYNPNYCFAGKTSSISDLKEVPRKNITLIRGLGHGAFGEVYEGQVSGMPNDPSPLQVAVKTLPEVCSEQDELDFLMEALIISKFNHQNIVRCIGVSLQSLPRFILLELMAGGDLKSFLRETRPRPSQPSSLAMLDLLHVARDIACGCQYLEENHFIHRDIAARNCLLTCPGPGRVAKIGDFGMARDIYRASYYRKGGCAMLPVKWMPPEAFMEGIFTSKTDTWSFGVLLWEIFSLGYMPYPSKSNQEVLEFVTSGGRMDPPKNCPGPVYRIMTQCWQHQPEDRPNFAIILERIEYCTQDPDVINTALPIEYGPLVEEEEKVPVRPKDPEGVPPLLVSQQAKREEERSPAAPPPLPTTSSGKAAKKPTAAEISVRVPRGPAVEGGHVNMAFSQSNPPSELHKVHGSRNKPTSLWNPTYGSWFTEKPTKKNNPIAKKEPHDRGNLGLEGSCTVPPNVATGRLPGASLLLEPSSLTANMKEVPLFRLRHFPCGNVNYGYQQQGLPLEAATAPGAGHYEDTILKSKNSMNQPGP
pIC50: −log10 of the molar value.

q: Can you look up pIC50 on baculovirus-expressed ALK (Homo sapiens) for COc1cc2c(cc1Nc1ncc(Cl)c(Nc3ccccc3S(=O)(=O)N(C)C)n1)CCN(CCN1CCOCC1)CC2 ?
a: > 7.00

q: Next record, please: CNC(=O)c1ccccc1Nc1nc(Nc2cc3c(cc2OC)N(C)C(=O)OCC3)ncc1C(F)(F)F
a: > 7.00

q: How about this molecule: CCN1CCCOc2ccc(Nc3ncc(Cl)c(Nc4c(F)cccc4C(=O)NC)n3)cc21
a: 6.00 to 7.00

q: Now give it for CNC(=O)c1sc(C(C)(C)C)cc1Nc1nc(Nc2ccc3c(c2)CCOC(=O)N3C)ncc1Cl too.
a: 5.00 to 6.00
